Below, each of the sequences is paired with its reported protein stability index value.
- experimental.protocol: protein stability index of a GFP-peptide fusion (yeast GPS) (PSI 1-4); higher = more stable; sorted into four equal gates, so the index is relative within each strain
- particulars: san1∆
Could you keep your reply to the number by itself?

>  <residue.string>
HVESDKITAKTQHEEEE [IRR1]

>  <protein stability index>
3.09

$$$$
>  <residue.string>
RLYLKDQTNHIESDSIL [ECM29]

>  <protein stability index>
2.96

$$$$

Input line: Value lookup for protein stability index; key = LLPQWDDDQIESLKKSP [ARP9]
Output line: 3.1

Input line: Data request, read-out protein stability index, for LNDRKVLFAAYKVEHPF [RPB11]
Output line: 2.03

Input line: Name the reported protein stability index value associated with the sequence TANATAELNLPTVDEQR [SNF11]
Output line: 2.99

Input line: Can you look up the measured protein stability index of HYERTQTKENKRCVGVI [RPN8] for me?
Output line: 2.49

Input line: # protein stability index lookup, item YLMTYPQQPMVKTKTIE [RET1]
Output line: 1.61

Input line: Tell me the measured protein stability index of CLFTKCLEDPEKPFNEN [POP4] , please.
Output line: 2.7
